# Tested on: HT-1080
# PROTOCOL_TEXT: Inhibition of invasion of human HT1080 cells at 30 uM after 24 hrs
# Format: functional
# TEST_SETTINGS: HT-1080, 24 h
Reported inhibition at 30 µM is given for each of the following compounds.
Write the answer as a number in %, unit excluded.

Consider the worked cases shown below.
Exam item: Quick check: inhibition at 30 µM of CC(=O)O[C@H]1C(=O)[C@@]2(C)[C@H]([C@H](OC(=O)c3ccccc3)[C@]3(O)C[C@H](OC(=O)[C@H](O)[C@@H](NC(=O)c4ccccc4)c4ccccc4)C(C)=C1C3(C)C)[C@]1(OC(C)=O)CO[C@@H]1C[C@@H]2O ?
Marked response: 89.2

Exam item: And what about the compound COc1cc2c(cc1OC)[C@]1(O)C(=O)c3ccc4c(c3O[C@@H]1CO2)C=CC(C)(C)O4 ?
Marked response: 67.6

Exam item: And what about the compound C=C(C)[C@H]1Cc2c(ccc3c2O[C@@H]2COc4cc(OC)c(OC)cc4[C@@H]2C3=O)O1 ?
Marked response: 51.6

Exam item: And what about the compound O=c1c(-c2ccc(O)cc2)coc2cc(O)cc(O)c12 ?
Marked response: 43.2

Exam item: And what about the compound C=C(C)[C@H]1Cc2c(ccc3c2O[C@@H]2COc4cc(OC)c(OC)cc4[C@]2(O)C3=O)O1 ?
Marked response: 54.6

// moving on: another record for inhibition at 30 µM
Exam item: Quick check: inhibition at 30 µM of COc1cc2c(cc1OC)[C@@H]1C(=O)c3ccc4c(c3O[C@@H]1CO2)C=CC(C)(C)O4 ?
Marked response: 57.9

---

# Tested on: HT-1080
# PROTOCOL_TEXT: Antiproliferative activity against human HT1080 cells at 10 uM after 72 hrs by MTT assay
# Type: functional
# TEST_SETTINGS: HT-1080, 72 h
Label MET for high-side inhibition at 10 µM (at or above 80%) and NOT MET for low-side inhibition at 10 µM (below it).

// known answers, use as guide
Exam item: Say whether C=C(C)[C@H]1Cc2c(ccc3c2O[C@@H]2COc4cc(OC)c(OC)cc4[C@]2(O)C3=O)O1 shows inhibition at 10 µM of 80% or more.
Marked response: MET

Exam item: And what about the compound C=C(C)[C@H]1Cc2c(ccc3c2O[C@@H]2COc4cc(OC)c(OC)cc4[C@@H]2C3=O)O1 ?
Marked response: MET

Exam item: And what about the compound COc1cc2c(cc1OC)[C@@H]1C(=O)c3ccc4c(c3O[C@@H]1CO2)C=CC(C)(C)O4 ?
Marked response: MET

---
Exam item: Say whether COc1cc2c(cc1OC)[C@]1(O)C(=O)c3ccc4c(c3O[C@@H]1CO2)C=CC(C)(C)O4 shows inhibition at 10 µM of 80% or more.
Marked response: MET

Exam item: And what about the compound O=c1c(-c2ccc(O)cc2)coc2cc(O)cc(O)c12 ?
Marked response: NOT MET

---

Reported IC50 is given for each of the following compounds.
# Tested on: U-937
# PROTOCOL_TEXT: Antiproliferative activity against human U937 cells after 24 hrs by WST-8 assay
# Format: functional, cell-based
# TEST_SETTINGS: U-937, 24 h
Write the answer as a number in µM, unit excluded.

Exam item: Quick check: IC50 of COc1ccc(-c2coc3cc(O)ccc3c2=O)cc1 [FORMONONETIN] ?
Marked response: 50

Exam item: And what about the compound COc1cc(O)cc2c1C(=O)O[C@@H](C)CCCCCCC2 [LASIODIPLODIN] ?
Marked response: 36

---
Exam item: Quick check: IC50 of CC(C)(O)[C@@H](O)Cc1c(O)cc2occ(-c3ccc(O)cc3)c(=O)c2c1O [ERYCIBENIN A] ?
Marked response: 46

Exam item: And what about the compound CC1(C)C=Cc2c(cc3occ(-c4ccc(O)cc4)c(=O)c3c2O)O1 [ALPINUMISOFLAVONE] ?
Marked response: 35

Exam item: And what about the compound COc1ccc([C@@H]2CCc3c(OC)cc(OC)cc3O2)c(O)c1 [ERYCEBENIN E] ?
Marked response: 37

Exam item: And what about the compound C=C(C)[C@H]1Cc2c(ccc3c2O[C@@H]2COc4cc(OC)c(OC)cc4[C@@H]2C3=O)O1 [ROTENONE] ?
Marked response: 13

Exam item: And what about the compound COc1cc2c(cc1OC)[C@]1(O)C(=O)c3ccc4c(c3O[C@@H]1CO2)C=CC(C)(C)O4 [TEPHROSIN] ?
Marked response: 30

Exam item: And what about the compound COc1cc2c(cc1OC)[C@@H]1C(=O)c3ccc4c(c3O[C@@H]1CO2)C=CC(C)(C)O4 [DEGUELIN] ?
Marked response: 42

Exam item: And what about the compound CC(C)=CCc1c(O)cc2occ(-c3ccc(O)cc3)c(=O)c2c1O [WIGHTEONE] ?
Marked response: 28

Exam item: And what about the compound COc1ccc(-c2coc3cc(O)ccc3c2=O)cc1O [CALYCOSIN] ?
Marked response: 49

Exam item: And what about the compound COc1cc(OC)c2c(c1)O[C@H](c1ccc(O)cc1)CC2 ?
Marked response: 39

Exam item: And what about the compound CC1(C)C=Cc2c(cc(O)c3c(=O)c(-c4ccc(O)cc4)coc23)O1 [DERRONE] ?
Marked response: 26
